Entry source: patent US11897865B2

- assay_target: ABHD12 (Homo sapiens)
- protocol_summary: Lyso-PS hydrolysis assay (substrate-based), ABHD12-overexpressing HEK293T membrane lysate
- test_context: 17:1 lyso-PS substrate; ABHD12-overexpressed HEK lysate; read-out: IC50 (Substrate-based assay_ABHD12-overexpressed HEK lysate)
- Method: Lyso-PS Hydrolysis Assay: The lyso-PS lipase activity of ABHD12 was determined as previously described (Blankman, J. L., Long, J. Z., Trauger, S. A., Siuzdak, G. & Cravatt, B. F. ABHD12 controls brain lysophosphatidylserine pathways that are deregulated in a murine model of the neurodegenerative disease PHARC. Proc. Natl. Acad. Sci. U. S. A. 110, 1500-1505, doi:10.1073/pnas.1217121110 (2013)) with some minor modifications. […]
metric: IC50

{"columns": ["smiles_str", "assay_result"],
 "data": [
  ["FC(F)(F)Oc1ccccc1Oc1ccnc(N2CCC(NC(=S)Nc3cccnc3)CC2)c1Cl", "100 to 1000 nM"],
  ["FC(F)(F)c1cnc(N2CCC(NC(=S)Nc3cccnc3)CC2)c(Cl)c1", "1000 to 25000 nM"],
  ["FC(F)(F)Oc1ccc(Oc2ccnc(N3CCC(NC(=S)Nc4cccnc4)CC3)c2)cc1Cl", "100 to 1000 nM"],
  ["S=C(Nc1cccnc1)NC1CCN(c2cc(Oc3ccccc3)ccn2)CC1", "1000 to 25000 nM"],
  ["FC(F)(F)c1cc(Cl)nc(N2CCC(NC(=S)Nc3cccnc3)CC2)c1", "100 to 1000 nM"],
  ["FC(F)(F)c1cc(N2CCC(NC(=S)Nc3cccnc3)CC2)ncc1Cl", "1000 to 25000 nM"],
  ["FC(F)(F)c1ccc(N2CCC(NC(=S)Nc3cccnc3)CC2)nc1", "1000 to 25000 nM"],
  ["FC(F)(F)Oc1cc(Oc2ccnc(N3CCC(NC(=S)Nc4cccnc4)CC3)c2)ccc1Cl", "100 to 1000 nM"]
]}

---

- assay_target: ABHD12 (Mus musculus, UniProt Q99LR1)
- Construct: from tissue; host or cells: brain membrane proteome
- Sequence (Q99LR1 whole entry): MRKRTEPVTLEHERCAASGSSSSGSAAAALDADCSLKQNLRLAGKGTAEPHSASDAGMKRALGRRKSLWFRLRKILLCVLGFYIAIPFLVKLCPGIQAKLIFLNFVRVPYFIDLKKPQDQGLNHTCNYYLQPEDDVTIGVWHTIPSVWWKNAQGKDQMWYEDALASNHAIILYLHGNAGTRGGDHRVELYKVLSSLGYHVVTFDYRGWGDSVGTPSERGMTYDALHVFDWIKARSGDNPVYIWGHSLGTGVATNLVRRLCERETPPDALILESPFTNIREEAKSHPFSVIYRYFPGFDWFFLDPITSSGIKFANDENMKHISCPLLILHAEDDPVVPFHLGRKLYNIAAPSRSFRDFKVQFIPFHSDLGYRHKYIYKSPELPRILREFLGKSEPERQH
- protocol_summary: Gel-based competitive ABPP, JJH350 probe vs brain membrane proteome
- Format: biochemical
- test_context: 10 μM compound, read-out: % Inhibition @ 10 μM (ABPP gel_JJH350 probe vs brain mem)

{"columns": ["compound", "inhibition at 10 µM"],
 "data": [
  ["FC(F)(F)Oc1ccc(Oc2ccnc(N3CCC(NC(=S)Nc4cccnc4)CC3)c2)cc1 [Example 2]", "≥ 75%"],
  ["S=C(Nc1cccnc1)NC1CCN(c2cc(OCc3ccccc3)ccn2)CC1 [Example 37]", "≥ 75%"],
  ["FC(F)(F)c1cnc(NCCCCNC(=S)Nc2cccnc2)c(Cl)c1 [Example 83]", "25 to 50%"],
  ["COc1ccc(-c2ccnc(N3CCC(NC(=S)Nc4cccnc4)CC3)c2)cc1 [Example 46]", "0 to 25%"],
  ["FC(F)(F)c1cnc(N2CCC(NC(=S)Nc3cccnc3)CC2)c(Cl)c1 [Example 1]", "≥ 75%"],
  ["S=C(Nc1cccnc1)NC1CCN(c2ncccc2Cl)CC1 [Example 17]", "50 to 75%"],
  ["Fc1ccc(COc2ccnc(N3CCC(NC(=S)Nc4cccnc4)CC3)c2)cc1 [Example 38]", "≥ 75%"],
  ["FC(F)(F)c1ccc(N2CCC(NC(=S)Nc3cccnc3)CC2)nc1 [Example 14]", "≥ 75%"],
  ["FC(F)(F)c1ccnc(N2CCC(NC(=S)Nc3cccnc3)CC2)c1Cl [Example 26]", "≥ 75%"],
  ["FC(F)(F)Oc1ccc(Oc2ccnc(N3CCC(NC(=S)Nc4cccnc4)CC3)c2)cc1Cl [Example 54]", "≥ 75%"],
  ["FC(F)(F)c1cnc(N2CCCC(NC(=S)Nc3cccnc3)CC2)c(Cl)c1 (stereo not drawn) [Example 80]", "50 to 75%"],
  ["FC(F)COc1ccnc(N2CCC(NC(=S)Nc3cccnc3)CC2)c1 [Example 32]", "50 to 75%"],
  ["FC(F)(F)Oc1ccc(-c2ccnc(N3CCC(NC(=S)Nc4cccnc4)CC3)c2)cc1 [Example 22]", "≥ 75%"],
  ["FC(F)(F)c1cnc(N2CCC(NC(=S)Nc3ccccc3)CC2)c(Cl)c1 [Example 9]", "≥ 75%"],
  ["COc1ccnc(N2CCC(NC(=S)Nc3cccnc3)CC2)c1 [Example 44]", "50 to 75%"],
  ["CCCCCc1ccc(Oc2ccnc(N3CCC(NC(=S)Nc4cccnc4)CC3)c2)cc1 [Example 61]", "≥ 75%"],
  ["S=C(Nc1cccnc1)NC1CCN(c2cc(OCCC3CC3)ccn2)CC1 [Example 33]", "≥ 75%"],
  ["FC(F)(F)c1ccc(N2CCC(NC(=S)Nc3cccnc3)CC2)nn1 [Example 79]", "0 to 25%"]
]}

---

- assay_target: ABHD12 (Homo sapiens, UniProt Q8N2K0)
- Sequence (Q8N2K0 whole entry, species assumed): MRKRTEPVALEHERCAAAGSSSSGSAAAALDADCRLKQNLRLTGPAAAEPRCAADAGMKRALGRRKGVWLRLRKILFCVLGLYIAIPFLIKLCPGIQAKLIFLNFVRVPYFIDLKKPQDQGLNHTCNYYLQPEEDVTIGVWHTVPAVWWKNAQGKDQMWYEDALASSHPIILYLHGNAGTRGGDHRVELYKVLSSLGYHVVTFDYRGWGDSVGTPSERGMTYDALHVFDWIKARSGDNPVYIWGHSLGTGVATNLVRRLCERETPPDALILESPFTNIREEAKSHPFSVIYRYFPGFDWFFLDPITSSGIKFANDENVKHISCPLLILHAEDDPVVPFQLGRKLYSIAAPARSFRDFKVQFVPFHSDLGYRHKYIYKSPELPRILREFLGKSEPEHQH
- protocol_summary: Lyso-PS hydrolysis assay (substrate-based), ABHD12-overexpressing HEK293T membrane lysate
- test_context: 17:1 lyso-PS substrate; ABHD12-overexpressed HEK lysate; read-out: IC50 (Substrate-based assay_ABHD12-overexpressed HEK lysate)

{"columns": ["molecule", "IC50"],
 "data": [
  ["FC(F)(F)Oc1ccc(Oc2ccnc(N3CCC(NC(=S)Nc4cccnc4)CC3)c2Cl)cc1Cl [Example 65]", "≤ 100 nM"],
  ["FC(F)(F)Oc1ccc(Oc2ccnc(N3CCC(NC(=S)Nc4cccnc4)CC3)c2Cl)c(Cl)c1 [Example 4]", "≤ 100 nM"],
  ["FC(F)(F)Oc1ccc(Oc2ccnc(N3CCC(NC(=S)Nc4cccnc4)CC3)c2)cc1 [Example 2]", "100 to 1000 nM"],
  ["COc1ccc(Oc2ccnc(N3CCC(NC(=S)Nc4cccnc4)CC3)c2)cc1 [Example 74]", "1000 to 25000 nM"],
  ["Cc1c(Oc2ccc(OC(F)(F)F)cc2)ccnc1N1CCC(NC(=S)Nc2cccnc2)CC1 [Example 72]", "≤ 100 nM"],
  ["C#Cc1ccc(Oc2ccnc(N3CCC(NC(=S)Nc4cccnc4)CC3)c2Cl)c(Cl)c1 [Example 5]", "≤ 100 nM"],
  ["FC(F)(F)c1ccnc(N2CCC(NC(=S)Nc3cccnc3)CC2)c1Cl [Example 26]", "100 to 1000 nM"],
  ["FC(F)(F)c1cccc(N2CCC(NC(=S)Nc3cccnc3)CC2)n1 [Example 29]", "100 to 1000 nM"],
  ["N#Cc1c(Oc2ccc(OC(F)(F)F)cc2)ccnc1N1CCC(NC(=S)Nc2cccnc2)CC1 [Example 71]", "100 to 1000 nM"],
  ["FC(F)(F)c1ccc(Oc2ccnc(N3CCC(NC(=S)Nc4cccnc4)CC3)c2)cc1 [Example 51]", "100 to 1000 nM"],
  ["FC(F)(F)Oc1ccc(Oc2ccnc(N3CCC(NC(=S)Nc4cccnc4)CC3)c2Cl)cc1 [Example 3]", "≤ 100 nM"],
  ["FC(F)(F)c1ccnc(N2CCC(NC(=S)Nc3cccnc3)CC2)c1 [Example 15]", "1000 to 25000 nM"],
  ["S=C(Nc1cccnc1)NC1CCN(c2cc(Cl)ccn2)CC1 [Example 28]", "1000 to 25000 nM"],
  ["FC(F)(F)Oc1cccc(Oc2ccnc(N3CCC(NC(=S)Nc4cccnc4)CC3)c2Cl)c1 [Example 66]", "100 to 1000 nM"],
  ["FC(F)(F)c1cccnc1N1CCC(NC(=S)Nc2cccnc2)CC1 [Example 16]", "1000 to 25000 nM"],
  ["Fc1ccc(Oc2ccnc(N3CCC(NC(=S)Nc4cccnc4)CC3)c2)cc1 [Example 41]", "1000 to 25000 nM"],
  ["FC(F)(F)Oc1ccc(Oc2ccnc(N3CCC(NC(=S)Nc4cccnc4)CC3)c2C(F)(F)F)cc1 [Example 59]", "1000 to 25000 nM"]
]}

---

- assay_target: ABHD12 (Mus musculus, UniProt Q99LR1)
pIC50: −log10 of the molar value.
Measured pIC50, listed per entry.
metric: pIC50

{"columns": ["smiles_str", "assay_result"],
 "data": [
  ["FC(F)(F)c1ccnc(N2CCC(NC(=S)Nc3cccnc3)CC2)c1Cl", "6.00 to 7.00"],
  ["N#Cc1c(Oc2ccc(OC(F)(F)F)cc2)ccnc1N1CCC(NC(=S)Nc2cccnc2)CC1", "6.00 to 7.00"],
  ["Cc1c(Oc2ccc(OC(F)(F)F)cc2)ccnc1N1CCC(NC(=S)Nc2cccnc2)CC1", "≥ 7.00"],
  ["FC(F)(F)Oc1ccc(Oc2ccnc(N3CCC(NC(=S)Nc4cccnc4)CC3)c2)cc1", "6.00 to 7.00"],
  ["FC(F)(F)Oc1cccc(Oc2ccnc(N3CCC(NC(=S)Nc4cccnc4)CC3)c2Cl)c1", "≥ 7.00"],
  ["Fc1ccc(Oc2ccnc(N3CCC(NC(=S)Nc4cccnc4)CC3)c2Cl)cc1OC(F)(F)F", "≥ 7.00"],
  ["FC(F)(F)c1ccc(N2CCC(NC(=S)Nc3cccnc3)CC2)nc1", "4.60 to 6.00"],
  ["FC(F)(F)c1cnc(N2CCC(NC(=S)Nc3cccnc3)CC2)c(Cl)c1", "4.60 to 6.00"],
  ["FC(F)(F)c1cc(Cl)nc(N2CCC(NC(=S)Nc3cccnc3)CC2)c1", "6.00 to 7.00"],
  ["FC(F)(F)Oc1ccccc1Oc1ccnc(N2CCC(NC(=S)Nc3cccnc3)CC2)c1Cl", "≥ 7.00"],
  ["CC(=O)c1ccnc(N2CCC(NC(=S)Nc3cccnc3)CC2)c1", "4.60 to 6.00"],
  ["FC(F)(F)c1cccc(N2CCC(NC(=S)Nc3cccnc3)CC2)n1", "6.00 to 7.00"],
  ["FC(F)(F)c1cccnc1N1CCC(NC(=S)Nc2cccnc2)CC1", "4.60 to 6.00"],
  ["FC(F)(F)Oc1ccc(Oc2ccnc(N3CCC(NC(=S)Nc4cccnc4)CC3)c2Cl)cc1Cl", "≥ 7.00"],
  ["S=C(Nc1cccnc1)NC1CCN(c2cc(OCC3CC3)ccn2)CC1", "4.60 to 6.00"],
  ["FC(F)(F)c1ccnc(N2CCC(NC(=S)Nc3cccnc3)CC2)c1", "6.00 to 7.00"],
  ["FC(F)(F)c1cc(N2CCC(NC(=S)Nc3cccnc3)CC2)ncc1Cl", "4.60 to 6.00"],
  ["S=C(Nc1cccnc1)NC1CCN(c2cc(Oc3ccccc3)ccn2)CC1", "4.60 to 6.00"],
  ["S=C(Nc1cccnc1)NC1CCN(c2cc(Cl)ccn2)CC1", "4.60 to 6.00"],
  ["Fc1ccc(Oc2ccnc(N3CCC(NC(=S)Nc4cccnc4)CC3)c2)cc1", "4.60 to 6.00"]
]}
